Overview of recorded IC50 for various compounds
- Test system: 996289-038-R-J1-PDC complex spheroid viability;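 also: spheroids exposed to the agents for 7 days before readout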
- test_method_notes: Anticancer human tumor 996289-038-R-J1-PDC patient-derived colon adenocarcinoma cell line growth inhibition [CLK]
- condition_info: curve of first compound; second compound 10 µM

Reference set (6 entries):
Nc1ccccc1NC(=O)c1ccc(CNC(=O)OCc2cccnc2)cc1 + CN1CCN(c2cc(C(=O)Nc3cc4cc(-c5cnn(C)c5)ccc4cn3)ccn2)CC1; < 31.6 nM
CCc1c2c(nc3ccc(O)cc13)-c1cc3c(c(=O)n1C2)COC(=O)[C@]3(O)CC + CN1CCN(c2cc(C(=O)Nc3cc4cc(-c5cnn(C)c5)ccc4cn3)ccn2)CC1; < 3.16 nM
C#Cc1c(F)ccc2cc(O)cc(-c3ncc4c(N5CC6CCC(C5)N6)nc(OCC56CCCN5CC(F)C6)nc4c3F)c12 (configuration not stated) + CNC(=O)c1ccc(Nc2nc(OC3CCCC3)c3c(-c4ccc5nc(C)oc5c4)c[nH]c3n2)c(OC)c1; < 31.6 nM
CC(CO)NC(=O)c1cc(-c2ccc(Cl)cc2)nn(-c2cnn(C)c2)c1=O (configuration not stated) + CNC(=O)c1ccc(Nc2nc(OC3CCCC3)c3c(-c4ccc5nc(C)oc5c4)c[nH]c3n2)c(OC)c1; > 10000 nM
CC1(C)CCC(CN2CCN(c3ccc(C(=O)NS(=O)(=O)c4ccc(NCC5CCOCC5)c([N+](=O)[O-])c4)c(Oc4cnc5[nH]ccc5c4)c3)CC2)=C(c2ccc(Cl)cc2)C1 + CN1CCN(c2cc(C(=O)Nc3cc4cc(-c5cnn(C)c5)ccc4cn3)ccn2)CC1; < 31.6 nM
COc1ccc([C@@H](O)c2cc(-c3ncnc4cc(N5CCOCC5)ccc34)c(F)cc2Cl)nn1 + CN1CCN(c2cc(C(=O)Nc3cc4cc(-c5cnn(C)c5)ccc4cn3)ccn2)CC1; < 31.6 nM

Let us examine a further case.
Task: Kindly indicate its recorded IC50. Item: CCN1CCN(Cc2ccc(Nc3ncc(F)c(-c4cc(F)c5nc(C)n(C(C)C)c5c4)n3)nc2)CC1 + CNC(=O)c1ccc(Nc2nc(OC3CCCC3)c3c(-c4ccc5nc(C)oc5c4)c[nH]c3n2)c(OC)c1
Output: > 1000 nM
